- Target desc: T1, human CD38 on transiently transfected Expi293 cells (Origene #SC321273) (human, UniProt P28907 1-300)
- T1 construct: whole, on cells; also called Human (FACs)
- Assay protocol: flow cytometry, transfected Expi293 cells;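 also: antibody binding to Expi293 cells transiently expressing human or murine CD38, antibodies applied at 10 ug/ml for 60 min on ice, read by flow cytometry as percent gated cells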
Parameter: FACs 10 ug/ml (percent gated) (%)
State just the number; it will be interpreted in %.

Binder: 40769p1.1.G10 (scFv, V domains shown, tested as scFv-Fc supernatant) VH: EVQLLESGGGLVQPGGSLRLSCAASGFTFSDYWMNWVRQAPGKGLEWVSTISSGGSMIYHADSVKGRFTISRDNSKNTLYLQMNSLRPEDTAVYYCAKDNWNDYYGMDVWGQGTTVTVSS VL: QSVLTQPPSASGTPGQRVNISCSGSSSNIRYNYVYWYQQVPGTAPKLLIYKDDQRPSGVPDRFSGSESGTSASLAISGLQSEDEADYYCATWDGSLNARVFGGGTKLTVL
Unit abbreviation: %
Value reported: 77.5

Binder: 40769p1.1.H1 (scFv, V domains shown, tested as scFv-Fc supernatant) VH: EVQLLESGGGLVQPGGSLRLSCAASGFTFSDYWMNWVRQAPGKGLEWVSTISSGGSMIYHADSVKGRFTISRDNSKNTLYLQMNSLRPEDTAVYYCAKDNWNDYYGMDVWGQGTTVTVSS VL: QSVLTQPPSASGTPGQRVNISCSGSSSNIRYNYVYWYQQVPGTAPKLLIYKDDQRPSGVPDRFSGSKSGTSASLAISELQSEDEADYYCATWDGSLNARVFGGGTKLTVL
Unit abbreviation: %
Value reported: 76.2

Here's the next entry for you.
Identify FACs 10 ug/ml (percent gated) associated with the binder 40566p1.F1 (scFv, V domains shown, tested as scFv-Fc supernatant; also called 40566p1.Fl) VH: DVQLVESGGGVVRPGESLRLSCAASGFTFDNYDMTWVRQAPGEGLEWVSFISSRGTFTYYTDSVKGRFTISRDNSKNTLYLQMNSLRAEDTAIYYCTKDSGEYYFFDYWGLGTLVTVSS VL: ETVMTQSPATLSVSPGERATFSCRASQSVNGKLAWYQQKPGQAPRLLIYDASRRATGIPDRFSGSGSGTEFTLTISSLQSEDFAVYYCQQYYDWPPLTFGGGTKVEIK
32

The reported measurements were obtained from patent US20220306762A1.
